- assay-system: T1, human CD47 (human, UniProt Q08722 19-323)
- T1 construct: whole, on cells; also called CD47 on human RBCs; CD47 on OV10 cells
- T1 sequence (Q08722 19-323): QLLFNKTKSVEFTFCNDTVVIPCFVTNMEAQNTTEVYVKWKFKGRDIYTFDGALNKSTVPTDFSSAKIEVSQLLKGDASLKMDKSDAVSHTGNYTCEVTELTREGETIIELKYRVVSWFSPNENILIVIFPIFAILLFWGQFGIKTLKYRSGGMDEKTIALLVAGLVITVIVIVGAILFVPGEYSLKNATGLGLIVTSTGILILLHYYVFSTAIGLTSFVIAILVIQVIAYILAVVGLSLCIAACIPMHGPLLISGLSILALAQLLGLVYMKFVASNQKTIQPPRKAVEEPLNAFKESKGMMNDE
- experimental-protocol: FACS, human RBCs, supernatant 10 ng/ml
Exercise: for every item that follows, state its recorded mean fluorescence relative to chimera.
The response must contain the number and no unit.

Q) # query: mean fluorescence relative to chimera of entry Clone 15 (pVxK7b-037-hum15-LC / pVxK7b-037-hum15-HC) (antibody, human IgG1, kappa, V domains shown) VH: QVQLQESGPGLVKPSQTLSLTCTVSGYTFTNYYVFWVRQARGQRLEWIGDINPVNGDTNFNEKFKNRLTISKDTSKNQVVLTMTNMDPVDTATYYCARGGYTMDYWGQGTLVTVSS VL: AIQLTQSPSSLSASVGDRVTITCRSSQSLVHSNGNTYLHWYQQKPGQAPRLLIYKVSYRFSGVPSRFSGSGSGTEFTLTISSLQPDDFATYYCSQNTHVPRTFGQGTKVEIKR
A) 1

Q) # query: mean fluorescence relative to chimera of entry Clone 21 (pVxK7b-037-hum21-LC / pVxK7b-037-hum21-HC) (antibody, human IgG1, kappa, V domains shown) VH: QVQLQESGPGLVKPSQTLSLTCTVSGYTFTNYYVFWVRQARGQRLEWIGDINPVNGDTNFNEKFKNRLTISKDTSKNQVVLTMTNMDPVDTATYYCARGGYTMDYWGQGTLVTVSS VL: AIQLTQSPSSLSASVGDRVTITCRSSQSLVHSNGNTYLHWYQQKPGQAPRLLIYKVSYRFSGVPDRFSGSGSGTDFTLKISRVEAEDVGVYYCSQNTHVPRTFGQGTKVEIKR
A) 1.2

Q) # query: mean fluorescence relative to chimera of entry Clone 22 (pVxK7b-037-hum22-LC / pVxK7b-037-hum22-HC) (antibody, human IgG1, kappa, V domains shown) VH: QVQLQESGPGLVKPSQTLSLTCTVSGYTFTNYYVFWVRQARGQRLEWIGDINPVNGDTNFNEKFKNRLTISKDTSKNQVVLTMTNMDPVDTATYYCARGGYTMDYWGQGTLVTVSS VL: EIVLTQSPATLSVSPGERATLSCRSSQSLVHSNGNTYLHWYQQKPGQAPRLLIYKVSYRFSGVPSRFSGSGSGTDFTFTISSLEAEDAATYYCSQNTHVPRTFGQGTKVEIKR
A) 1.1

Q) # query: mean fluorescence relative to chimera of entry chimeric antibody VxP037-01LC-Pro/VxP037-01HC-Pro (antibody, human IgG1, kappa, V domains shown, also called Chimera; VxP037-01LC/VxP037-01HC) VH: EVQLQQFGAELVKPGASMKLSCKASGYTFTNYYVFWVKQRPGQGLEWIGDINPVNGDTNFNEKFKNKATLTVDKSSTTTYLQLSSLTSEDSAVYYCTRGGYTMDYWGQGTLVTVSS VL: DVVMTQTPLSLSVSLGDQASISCRSSQSLVHSNGNTYLHWYLQKPGQSPKLLIYKVSYRFSGVPDRFSGSGSGTDFTLKISRVEAEDLGVYFCSQNTHVPRTFGQGTKVEIKR
A) 1

Q) # query: mean fluorescence relative to chimera of entry Clone 16 (pVxK7b-037-hum16-LC / pVxK7b-037-hum16-HC) (antibody, human IgG1, kappa, V domains shown) VH: QVQLQESGPGLVKPSQTLSLTCTVSGYTFTNYYVFWVRQARGQRLEWIGDINPVNGDTNFNEKFKNRVTISADKSISTAYLQWSSLKASDTAMYYCARGGYTMDYWGQGTLVTVSS VL: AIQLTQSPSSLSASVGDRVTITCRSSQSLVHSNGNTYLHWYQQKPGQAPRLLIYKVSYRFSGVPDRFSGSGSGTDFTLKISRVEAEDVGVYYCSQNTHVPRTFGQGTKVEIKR
A) 0.9

The measurements presented in this section are drawn from patent US20180051081A1.
